# TARGET OR TEST SYSTEM: cellular PARG (Homo sapiens, UniProt Q86W56)
# Construct: endogenous in cells
# Sequence (Q86W56 whole entry): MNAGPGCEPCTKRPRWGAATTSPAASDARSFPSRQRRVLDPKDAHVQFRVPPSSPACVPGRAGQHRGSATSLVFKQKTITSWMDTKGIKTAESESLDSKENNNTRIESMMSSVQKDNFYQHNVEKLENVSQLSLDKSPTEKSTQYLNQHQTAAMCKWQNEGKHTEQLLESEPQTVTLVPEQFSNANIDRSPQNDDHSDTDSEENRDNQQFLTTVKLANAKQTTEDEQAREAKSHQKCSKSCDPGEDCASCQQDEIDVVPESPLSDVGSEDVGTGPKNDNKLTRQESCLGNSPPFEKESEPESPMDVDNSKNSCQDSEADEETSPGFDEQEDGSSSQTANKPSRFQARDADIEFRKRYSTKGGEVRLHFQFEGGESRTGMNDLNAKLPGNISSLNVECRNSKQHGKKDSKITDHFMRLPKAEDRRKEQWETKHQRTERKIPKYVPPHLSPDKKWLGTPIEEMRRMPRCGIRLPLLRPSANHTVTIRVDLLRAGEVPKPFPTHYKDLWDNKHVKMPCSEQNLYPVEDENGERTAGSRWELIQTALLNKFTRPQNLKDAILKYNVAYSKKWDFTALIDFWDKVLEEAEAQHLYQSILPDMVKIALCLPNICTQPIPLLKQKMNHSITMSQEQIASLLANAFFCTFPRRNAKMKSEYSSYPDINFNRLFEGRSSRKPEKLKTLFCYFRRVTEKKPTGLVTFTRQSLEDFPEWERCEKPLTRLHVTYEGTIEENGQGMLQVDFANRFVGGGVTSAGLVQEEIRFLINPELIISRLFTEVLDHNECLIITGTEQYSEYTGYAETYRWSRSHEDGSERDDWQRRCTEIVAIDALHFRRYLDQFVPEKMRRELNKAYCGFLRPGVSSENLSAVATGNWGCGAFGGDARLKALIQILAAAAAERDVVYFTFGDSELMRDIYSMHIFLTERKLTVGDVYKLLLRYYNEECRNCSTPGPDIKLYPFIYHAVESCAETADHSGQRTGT
# PROTOCOL DESCRIPTION: Nuclear PAR accumulation assay (immunofluorescence high-content imaging, MMS-treated HeLa cells)
# CONDITIONS: 1 hour compound then MMS 50 μg/mL for an additional hour
# Experimental: HeLa cells were plated at 15,000 cells/well in a 96-well plate the day before compound treatment and then treated with varying concentrations of test compound and incubated for 1 hour at 37° C.+5% CO2. […] Nuclear PAR accumulation was evaluated using high-content fluorescence microscopy. Four fields for each well were acquired at 20× magnification resulting in at least 1,000 cells analyzed per well. […] Both the average intensity per nucleus and percent PAR positive cells were quantified. […]
So I've got a bunch of molecules here, and I need their IC50 values.

Exam item: Recorded IC50 for COc1ccc(CN2C(=O)c3cc(S(=O)(=O)NC4(C)CC4)ccc3N3C2=N[C@H]2CCC[C@H]23)cn1 [Example 273] , please?
Marked response: 100 to 1000 nM

Exam item: How about this molecule: [2H]C([2H])(c1cnn(C)c1)N1C(=O)c2cc(S(=O)(=O)NC3(C)CC3)ccc2N2C1=N[C@H]1C[C@H](N(C)C)C[C@H]12 [Example 284]
Marked response: 1000 to 10000 nM

Exam item: How about this molecule: Cn1cc(CN2C(=O)c3cc(S(=O)(=O)NC4(C)CC4)ccc3N3C2=NC[C@H]3C#Cc2cnc3cccnn23)cn1 [Example 221]
Marked response: < 100 nM

====

So I've got a bunch of compounds here, and I need their IC50 values.
# TARGET OR TEST SYSTEM: cellular PARG (Homo sapiens, UniProt Q86W56)
# Construct: endogenous in cells
# PROTOCOL DESCRIPTION: Nuclear PAR accumulation assay (immunofluorescence high-content imaging, MMS-treated HeLa cells)
# CONDITIONS: 1 hour compound then MMS 50 μg/mL for an additional hour
# Experimental: HeLa cells were plated at 15,000 cells/well in a 96-well plate the day before compound treatment and then treated with varying concentrations of test compound and incubated for 1 hour at 37° C.+5% CO2. […] Nuclear PAR accumulation was evaluated using high-content fluorescence microscopy. Four fields for each well were acquired at 20× magnification resulting in at least 1,000 cells analyzed per well. […] Both the average intensity per nucleus and percent PAR positive cells were quantified. […]

Exam item: Recorded IC50 for `[2H]C([2H])(c1cnn(C)c1)N1C(=O)c2cc(S(=O)(=O)NC3(C)CC3)ccc2N2C1=NC[C@H]2C#Cc1ncccc1C` , please?
Marked response: < 0.1 µM

Exam item: How about this compound: `CN1C(=O)c2cc(S(=O)(=O)NC3(C)CC3)ccc2N2C1=NC[C@H]2C#Cc1cnc2ccc(C#N)nn12`
Marked response: < 0.1 µM

Exam item: How about this compound: `CC(=O)N1CCn2ncc(CN3C(=O)c4cc(S(=O)(=O)NC5(C)CC5)ccc4N4C3=NC[C@H]4C)c2C1`
Marked response: 0.1 to 1 µM

Exam item: How about this compound: `[2H]C([2H])(c1cnn(C)c1)N1C(=O)c2cc(S(=O)(=O)NC3(C)CC3)ccc2N2C1=NC[C@H]2COc1cnn(C)c1`
Marked response: < 0.1 µM

Exam item: How about this compound: `C[C@@H]1CN=C2N(Cc3cccnc3C#N)C(=O)c3cc(S(=O)(=O)NC4(C)CC4)c(F)cc3N21`
Marked response: 0.1 to 1 µM

Exam item: How about this compound: `C#C[C@@H]1CN=C2N(Cc3cnn(C)c3)C(=O)c3cc(S(=O)(=O)NC4(C)CC4)cc(C4=CCN(C)CC4)c3N21`
Marked response: < 0.1 µM

Exam item: How about this compound: CN1C(=O)c2cc(S(=O)(=O)NC3(C)CC3)ccc2N2C1=NCC2C#Cc1cc2cccnc2[nH]1 (stereo not shown)
Marked response: 0.1 to 1 µM
